target: RXFP2 mAb 2H3 (rat); test: SPR; Biacore S200; goat anti-rat Fc gamma immobilised on a Series S CM5 chip, purified recombinant rat anti-RXFP2 antibodies captured at 5 µg/mL; rat or human LDLa-linker protein flowed as analyte at 20, 10, 5, 2.5, 1.75 and 0 nM; 1:1 fit model
Value type: Kd

Problem: What value of Kd has been recorded for this entry: rat LDLa-linker protein (ratRXFP2-LDLa-linker(20-88)) (domain or fragment) GSNMVAPLCPKGYFPCGNLTKCLPRAFHCDGVDDCGNGADEDNCGDTSGWTTIFGTVHGNVNKVTLTEE
Solution: 582 nM
